Data credit: ChEMBL document CHEMBL5058577

- System: U2OS
- EXPERIMENTAL PROTOCOL: Multiplex assay against U2OS
- Format: toxicity, cell-based
- CONDITIONS: human, 12 h, 1 µM, compound concentration 1 uM, replicate 1
Outcome label depends on Population Hoechst High Intensity Objects (%) relative to 3%: at/above gives TRUE, below gives FALSE.

Known results for compounds:
| COMPOUND | MEASURED ON | CAT |
| --- | --- | --- |
| Cc1sc2c(c1C)C(c1ccc(Cl)cc1)=N[C@@H](CC(=O)NCCCCCCCCNC(=O)COc1cccc3c1C(=O)N(C1CCC(=O)NC1=O)C3=O)c1nnc(C)n1-2 (some centres undefined) | U2OS | TRUE |
| O=C(CCCc1ccccc1)Nc1nc2ccccc2c(=O)s1 | U2OS | FALSE |
| CCCCCC(O)/C=C/[C@H]1C(=O)CC(O)C1C/C=C\CCCC(=O)O (some centres undefined) | U2OS | FALSE |

Enquiry: Item CC(C)(C)c1cc(NC(=O)Nc2ccc(-c3cn4c(n3)sc3cc(OCCN5CCOCC5)ccc34)cc2)no1 with Population Hoechst High Intensity Objects (%) of 3% or above?
Return: TRUE

Enquiry: Item Cl.N=C(N)NC(=O)Cc1c(Cl)cccc1Cl [GUANFACINE HYDROCHLORIDE] with Population Hoechst High Intensity Objects (%) of 3% or above?
Return: TRUE

Enquiry: Item CCCCC1=NC2(CCCC2)C(=O)N1Cc1ccc(-c2ccccc2-c2nnn[nH]2)cc1 with Population Hoechst High Intensity Objects (%) of 3% or above?
Return: FALSE

Enquiry: Item CC(C)COc1ccc(CNC(=O)N(Cc2ccc(F)cc2)C2CCN(C)CC2)cc1 with Population Hoechst High Intensity Objects (%) of 3% or above?
Return: FALSE

---

As shown below, each of these molecules has a reported Population Tubulin-Different-Phenotype (%) value.
- Tested on: U2OS
- EXPERIMENTAL PROTOCOL: Multiplex assay against U2OS
- Format: toxicity, cell-based
- CONDITIONS: human, 48 h, 1 µM, compound concentration 1 uM, replicate 1
All answers are understood in %, so give the number only.

| MOLECULE | UNIT STRING | RECORDED NUMBER |
| --- | --- | --- |
| CC(=O)Nc1cccc2c1c(Sc1ccc(Cl)cc1)c(C)n2CC(=O)O | % | 4 |

Enquiry: For the molecule CCCCC1=NC2(CCCC2)C(=O)N1Cc1ccc(-c2ccccc2-c2nnn[nH]2)cc1 , give its measured Population Tubulin-Different-Phenotype (%) value.
Return: 2

Enquiry: For the molecule CCCCCC(O)/C=C/[C@H]1C(=O)CC(O)C1C/C=C\CCCC(=O)O (stereo not given in full) , give its measured Population Tubulin-Different-Phenotype (%) value.
Return: 2

Enquiry: For the molecule CN(C)C(=O)Cn1cc(-c2ccc(-c3cncc4ccccc34)cc2)cn1 , give its measured Population Tubulin-Different-Phenotype (%) value.
Return: 4

Enquiry: For the molecule Br.CS(=O)(=O)Nc1c(O)ccc2c1CCCC2C1=NCCN1 (stereo not given) , give its measured Population Tubulin-Different-Phenotype (%) value.
Return: 2

Enquiry: For the molecule Cc1onc(-c2ccccc2Cl)c1C(=O)N(C)c1ccc(Cl)cc1 , give its measured Population Tubulin-Different-Phenotype (%) value.
Return: 2

Enquiry: For the molecule CCCOc1ccc2[nH]cc(C3=CCNCC3)c2n1.Cl , give its measured Population Tubulin-Different-Phenotype (%) value.
Return: 1

---

- Tested on: U2OS
- EXPERIMENTAL PROTOCOL: Multiplex assay against U2OS
- Type: toxicity, cell-based
- CONDITIONS: human, 12 h, 1 µM, compound concentration 1 uM, replicate 1
Outcome label depends on Population Mitotic Cells (%) relative to 10%: at/above gives rule met, below gives rule not met.

| COMPOUND | CAT |
| --- | --- |
| CCCCCC(O)/C=C/[C@H]1C(=O)CC(O)C1C/C=C\CCCC(=O)O (stereo not given in full) | rule met |
| CC(/C=C1\SC(=S)N(CCCC(=O)Nc2ccc(C(=O)O)c(O)c2)C1=O)=C\c1ccccc1 | rule not met |
| CN[C@@H](C)C(=O)N[C@H](C(=O)N1CCC[C@H]1C(=O)Nc1snnc1-c1ccccc1)C1CCCCC1 | rule met |
| N#Cc1c(Oc2cccc(OS(=O)(=O)CCCC(F)(F)F)c2)cccc1C(F)(F)F | rule met |
| Cc1cnc(-c2cc(N3CCN(C(=O)CCS(C)(=O)=O)CC3)ncc2Cl)c(C)c1 | rule met |

Enquiry: Item Cc1cccc(NC(=O)CN2CCC(c3ccccn3)CC2)c1.Cl.Cl with Population Mitotic Cells (%) of 10% or above?
Return: rule not met

Enquiry: Item O=C(CCCc1ccccc1)Nc1nc2ccccc2c(=O)s1 with Population Mitotic Cells (%) of 10% or above?
Return: rule not met

---

- Test system: HEK-293T
- EXPERIMENTAL PROTOCOL: Multiplex assay against HEK293T
- Format: toxicity, cell-based
- CONDITIONS: human, 12 h, 10 µM, compound concentration 10 uM, replicate 1
ENDPOINT NAME: Population Apoptotic (%)
All answers are understood in %, so give the number only.

| COMPOUND | MEASURED ON | RECORDED NUMBER |
| --- | --- | --- |
| NCCc1cn(S(=O)(=O)c2c(Cl)nc3sccn23)c2ccccc12.O=C(O)C(=O)O | HEK-293T | 63 |
| CCCOc1ccc2[nH]cc(C3=CCNCC3)c2n1.Cl | HEK-293T | 43 |
| CC[C@@H](C)Nc1nc(C)nc2c(-c3ccc(OC)nc3C)c(C)nn12 | HEK-293T | 38 |
| CC(C)COc1ccc(CNC(=O)N(Cc2ccc(F)cc2)C2CCN(C)CC2)cc1 | HEK-293T | 62 |
| O=C1[C@H](Cc2ccc(O)cc2)N2C(=O)CCN(C(=O)NCc3ccccc3)[C@H]2CN1Cc1cccc2ccccc12 | HEK-293T | 68 |

Enquiry: For the compound Cc1onc(-c2ccccc2Cl)c1C(=O)N(C)c1ccc(Cl)cc1 , give its measured Population Apoptotic (%) value.
Return: 38

Enquiry: For the compound CC(C)(C)c1cc(NC(=O)Nc2ccc(-c3cn4c(n3)sc3cc(OCCN5CCOCC5)ccc34)cc2)no1 , give its measured Population Apoptotic (%) value.
Return: 53

Enquiry: For the compound Cc1c(CC(=O)O)c2cccnc2n1Cc1ccc(S(C)(=O)=O)cc1C(F)(F)F , give its measured Population Apoptotic (%) value.
Return: 33

Enquiry: For the compound N#Cc1c(Oc2cccc(OS(=O)(=O)CCCC(F)(F)F)c2)cccc1C(F)(F)F , give its measured Population Apoptotic (%) value.
Return: 42

Enquiry: For the compound N#Cc1cc(F)cc(-c2nc(-c3ccc(F)cn3)no2)c1 , give its measured Population Apoptotic (%) value.
Return: 45

---

As shown below, each of these compounds has a reported Population Membrane Permeable-Phenotype (%) value.
- System: HEK-293T
- EXPERIMENTAL PROTOCOL: Multiplex assay against HEK293T
- Format: toxicity, cell-based
- CONDITIONS: human, 24 h, 1 µM, compound concentration 1 uM, replicate 1
All answers are understood in %, so give the number only.

| COMPOUND | UNIT STRING | RECORDED NUMBER |
| --- | --- | --- |
| O=C1[C@H](Cc2ccc(O)cc2)N2C(=O)CCN(C(=O)NCc3ccccc3)[C@H]2CN1Cc1cccc2ccccc12 | % | 0 |
| Cc1c(CC(=O)O)c2cccnc2n1Cc1ccc(S(C)(=O)=O)cc1C(F)(F)F [FEVIPIPRANT] | % | 1 |
| CC(/C=C1\SC(=S)N(CCCC(=O)Nc2ccc(C(=O)O)c(O)c2)C1=O)=C\c1ccccc1 | % | 0 |

Enquiry: For the compound CC(C)c1noc(N2CCC(COc3ccc(-c4ccc(S(C)(=O)=O)cc4)nc3)CC2)n1 [GSK-1292263] , give its measured Population Membrane Permeable-Phenotype (%) value.
Return: 0

Enquiry: For the compound CCc1cc2cc(NS(=O)(=O)c3ccc(C#N)cc3)ccc2n(CC)c1=O , give its measured Population Membrane Permeable-Phenotype (%) value.
Return: 1

Enquiry: For the compound O=C(CCCc1ccccc1)Nc1nc2ccccc2c(=O)s1 , give its measured Population Membrane Permeable-Phenotype (%) value.
Return: 1

---

- System: HEK-293T
- EXPERIMENTAL PROTOCOL: Multiplex assay against HEK293T
- Assay type: toxicity, cell-based
- CONDITIONS: human, 24 h, 10 µM, compound concentration 10 uM, replicate 2
Each record gets a class by Population Hoechst High Intensity Objects (%): bottom end: < 9%; midrange: ≥ 9% and < 20%; top end: ≥ 20%

Known results for molecules:
| MOLECULE | CAT |
| --- | --- |
| Cc1sc2c(c1C)C(c1ccc(Cl)cc1)=N[C@@H](CC(=O)NCCCCCCCCNC(=O)COc1cccc3c1C(=O)N(C1CCC(=O)NC1=O)C3=O)c1nnc(C)n1-2 (stereo partly drawn) | top end |
| Cc1noc(-c2ccc(-c3ccc(CC(=O)O)cc3)cc2)c1NC(=O)O[C@H](C)c1ccccc1Cl | midrange |

Enquiry: Which band does C[C@H](N)COC(=O)[C@@H](CCCCN)NC(=O)Cc1c(-c2ccc3ccccc3c2)[nH]c2c1ccc1ccccc12 fall in?
Return: bottom end

Enquiry: Which band does COC[C@@H](c1ccc(C(F)(F)F)cc1)N1CCN(C2(C)CCN(C(=O)c3c(C)ncnc3C)CC2)C[C@@H]1C.O=C(O)/C=C\C(=O)O [VICRIVIROC MALEATE] fall in?
Return: midrange

Enquiry: Which band does CCCOc1ccc2[nH]cc(C3=CCNCC3)c2n1.Cl fall in?
Return: bottom end
